# targetOrTestSystem: Androgen receptor (Homo sapiens)
# measurementDescription: qHTS assay to identify small molecule agonists of the androgen receptor (AR) signaling pathway using the MDA cell line (AID 743040; also: nearly all actives have a fitted effect of over 20% in size)
# studyConditions: MDA-kb2 AR-luc cells, MMTV luciferase, 16 h; series mostly up to 70.3 µM
The source made the active and inactive calls. Calls follow the shape of the dose curve; as a rule, active = well fitted activation curve with a large enough effect in the repeat runs; inconclusive = weak or mixed curves; inactive = flat fitted curve, though single readings scatter.
Outcomes you can answer with include only these: 1.0 (active), 0.0 (inactive)

[Q] Lab log entry: CN[C@@H]1[C@H](O[C@H]2[C@H](O[C@H]3[C@H](O)[C@@H](O)[C@H](N=C(N)N)[C@@H](O)[C@@H]3N=C(N)N)O[C@@H](C)[C@]2(O)CO)O[C@@H](CO)[C@H](O)[C@H]1O — outcome as called in the assay?
[A] 0.0

[Q] Moving on to the next compound: CC(=O)OCC(=O)[C@@]1(O)[C@H](C)C[C@H]2[C@@H]3C[C@H](F)C4=CC(=O)C=C[C@]4(C)[C@H]3[C@@H](O)C[C@@]21C
[A] 1.0

[Q] Moving on to the next compound: CCC(=O)OCC(=O)[C@@]1(OC(=O)CC)[C@H](C)C[C@H]2[C@H]3[C@H]([C@@H](O)C[C@@]21C)[C@@]1(C)C=CC(=O)C=C1C[C@H]3Cl
[A] 1.0

[Q] Moving on to the next compound: CC(C)(C)NC(=O)[C@H]1CC[C@H]2[C@@H]3CC=C4C=C(C(=O)O)CC[C@]4(C)[C@H]3CC[C@]12C
[A] 0.0

[Q] Moving on to the next compound: COC(=O)C1=C(C)NC(C)=C(C(=O)O[C@H]2CCN(Cc3ccccc3)C2)[C@H]1c1cccc([N+](=O)[O-])c1
[A] 0.0

[Q] Moving on to the next compound: COc1cc(C)c(/C=C/C(C)=C/C=C/C(C)=C/C(=O)O)c(C)c1C
[A] 0.0

[Q] Moving on to the next compound: CC[C@H]1NC(=O)[C@@H](NC(=O)c2ncccc2O)[C@@H](C)OC(=O)[C@H](c2ccccc2)NC(=O)[C@@H]2CC(=O)CCN2C(=O)[C@H](Cc2ccccc2)N(C)C(=O)[C@@H]2CCCN2C1=O
[A] 0.0

[Q] Moving on to the next compound: O=C1c2ccccc2C(=O)C1c1ccc(Cl)cc1
[A] 0.0

[Q] Moving on to the next compound: CS(=O)(=O)OCC(O)C(O)COS(C)(=O)=O (stereo not drawn)
[A] 0.0

[Q] Moving on to the next compound: Cc1cccc(C)c1N(CCCc1cccnc1)C(=O)C(C)N (stereo not drawn)
[A] 0.0

[Q] Moving on to the next compound: COc1cc(Br)c(C[N+]2(CCOCCC3CCC4CC3C4(C)C)CCOCC2)cc1OC (stereo not drawn)
[A] 0.0

[Q] Moving on to the next compound: CCCC(=O)N1CCCN(c2nc(N)c3cc(OC)c(OC)cc3n2)CC1
[A] 0.0

[Q] Moving on to the next compound: C[C@@H]1C[C@H]2C3C[C@H](F)C4=CC(=O)C=CC4(C)[C@@]3(F)[C@@H](O)CC2(C)[C@@]1(O)C(=O)COC(=O)C(C)(C)C (stereo partly drawn)
[A] 1.0

[Q] Moving on to the next compound: Nc1c(Br)cc(Br)cc1CNC1CCC(O)CC1 (stereo not drawn)
[A] 1.0

[Q] Moving on to the next compound: C=C[C@]1(C)C[C@@H](OC(=O)CSC(C)(C)CNC(=O)[C@H](N)C(C)C)[C@]2(C)[C@H](C)CC[C@]3(CCC(=O)[C@H]32)[C@@H](C)[C@@H]1O
[A] 0.0

[Q] Moving on to the next compound: CO[C@@H]1[C@@H](O[C@@H]2O[C@H](C)[C@@H](O[C@H]3C[C@@](C)(O)[C@@H](OC(=O)CC(C)C)[C@H](C)O3)[C@H](N(C)C)[C@H]2O)[C@@H](CC=O)C[C@@H](C)C(=O)/C=C/C2OC2C[C@@H](C)OC(=O)C[C@H]1OC(C)=O (stereo partly drawn)
[A] 0.0

[Q] Moving on to the next compound: Cc1cccc(C)c1NC(=O)NC1=CCCN1C
[A] 0.0

[Q] Moving on to the next compound: CC(C)CCCC(C)NC(C)C (stereo not drawn)
[A] 0.0

[Q] Moving on to the next compound: CC(=O)O[C@H]1CC[C@@]2(C)C(=CC[C@@H]3[C@@H]2CC[C@]2(C)C(c4cccnc4)=CC[C@@H]32)C1
[A] 0.0

[Q] Moving on to the next compound: CC1(S(=O)(=O)O)CC(=O)c2ccccc2C1=O (stereo not drawn)
[A] 0.0

[Q] Moving on to the next compound: COc1ccc(CCNCC(O)COc2cccc(C)c2)cc1OC (stereo not drawn)
[A] 0.0

[Q] Moving on to the next compound: CCOC(=O)CCC(=O)O[C@H]1[C@H](O[C@@H]2[C@@H](C)[C@H](O[C@H]3C[C@@](C)(OC)[C@@H](O)[C@H](C)O3)[C@@H](C)C(=O)O[C@H](CC)[C@@](C)(O)[C@H](O)[C@@H](C)C(=O)[C@H](C)C[C@@]2(C)O)O[C@H](C)C[C@@H]1N(C)C
[A] 0.0

[Q] Moving on to the next compound: C=C(NC(=O)C(=C)NC(=O)c1csc(C2=N[C@@H]3c4csc(n4)[C@H]4NC(=O)c5csc(n5)[C@H]([C@](C)(O)[C@@H](C)O)NC(=O)[C@H]5CSC(=N5)C(=CC)NC(=O)C([C@@H](C)O)NC(=O)c5csc(n5)[C@]3(CC2)NC(=O)[C@H](C)NC(=O)C(=C)NC(=O)[C@H](C)NC(=O)C([C@@H](C)CC)NC2C=Cc3c([C@H](C)O)cc(nc3C2O)C(=O)O[C@@H]4C)n1)C(N)=O (stereo partly drawn)
[A] 0.0

[Q] Moving on to the next compound: COc1cc(/C=C/C(=O)N2CCN(CC(=O)N3CCCC3)CC2)cc(OC)c1OC
[A] 0.0

[Q] Moving on to the next compound: CN(C)CC/C=C1/c2ccccc2CSc2ccccc21
[A] 0.0

[Q] Moving on to the next compound: COc1cc(-c2ccc(-[n+]3nc(-c4ccccc4)nn3-c3ccc([N+](=O)[O-])cc3)c(OC)c2)ccc1-[n+]1nc(-c2ccccc2)nn1-c1ccc([N+](=O)[O-])cc1
[A] 0.0

[Q] Moving on to the next compound: CC(C)CCC[C@@H](C)[C@H]1CC(=O)C2=C3CC[C@H]4C[C@@H](O)CC[C@]4(C)[C@H]3CC[C@@]21C
[A] 0.0

[Q] Moving on to the next compound: CC(C)CN(C[C@@H](O)[C@H](Cc1ccccc1)NC(=O)O[C@@H]1CCOC1)S(=O)(=O)c1ccc(N)cc1
[A] 0.0

---

# measurementDescription: qHTS assay for identifying genotoxic compounds that show differential cytotoxicity against isogenic chicken DT40 cell lines with known DNA damage response pathways - Rev3 mutant cell line (AID 743014); also: nearly all actives have a fitted effect of over 55% in size; also: potency is read from the fitted curve at half-maximal effect
# studyConditions: chicken DT40 Rev3-/- viability, CellTiter-Glo, 40 h; series mostly up to 68.4 µM
Records with an inconclusive call do not appear. The source made the active and inactive calls. Calls come from the whole dose curve; as a rule, active = well fitted cell-killing curve with a large enough effect in the repeat runs; inconclusive = weak or mixed curves, or effect the other way; inactive = no such curve, though single readings can be large or run the other way.
readoutType: Potency

molecule="Cc1c(N)nc(C(CC(N)=O)NCC(N)C(N)=O)nc1C(=O)NC(C(=O)NC(C)C(O)C(C)C(=O)NC(C(=O)NCCc1nc(-c2nc(C(=O)NCCCN[C@@H](C)c3ccccc3)cs2)cs1)C(C)O)C(O[C@@H]1O[C@@H](CO)[C@@H](O)[C@H](O)[C@@H]1O[C@H]1O[C@H](CO)[C@@H](O)[C@H](OC(N)=O)[C@@H]1O)c1cnc[nH]1 (some centres undefined)" result="0.944 µM (active)"
molecule="CC1CCC(NC(=O)N(CCCl)N=O)CC1 (centres undefined)" result=inactive
molecule=CCCCOC(=O)C(=O)Nc1cccc(-c2nn[nH]n2)c1 result=inactive
molecule="Clc1ccc(COC(Cn2ccnc2)c2ccc(Cl)cc2Cl)c(Cl)c1 (centres undefined)" result="11.4 µM (active)"

---

# measurementDescription: qHTS assay to test for compound auto fluorescence at 590 nm (red) in HEK293 cell free culture (AID 720683)
# studyConditions: cell-free medium autofluorescence, Ex540/Em590 red; series mostly up to 46 µM
Activity calls are given as the source filed them. The call rests on the fitted dose curve; in most records, active means well fitted curve in the direction sought with a large enough effect in the repeat runs; inconclusive means weak or mixed curves; inactive means flat fitted curve, though single readings scatter.
readoutType: outcome

Examples from the recorded data:
compound=Cc1cc(C(=O)NNCc2ccccc2)no1 result=inactive
compound=CC(=O)Nc1c(I)c(C(=O)O)c(I)c(N(C)C(C)=O)c1I result=inactive
compound=O=C(O)COc1ccc(CCNS(=O)(=O)c2ccccc2)s1 result=inactive
compound="CCC(c1ccccc1)c1noc(CCN(CC)CC)n1 (configuration not stated)" result=inactive
compound=CC(C)(C)NC[C@H](O)COc1ccccc1C1CCCC1 result=inactive

[Q] // returns reported outcome for input O=P(O)(O)OC(CO)CO
[A] inactive

[Q] Moving on to the next compound: O=C(O)CCC/C=C\C[C@@H]1[C@@H](/C=C/[C@@H](O)COc2cccc(C(F)(F)F)c2)[C@H](O)C[C@@H]1O
[A] inactive
